- ASSAYED TARGET: T1, Human FAP ectodomain + poly-lys-tag + his6-tag (human, UniProt Q12884 27-760)
- T1 construct: also called hu FAP
- MEASUREMENT DESCRIPTION: SPR (ProteOn XPR36), purified Fab, monovalent binding
ENDPOINT LABEL: pKd
The scale used: pKd is minus the common logarithm of the concentration in molar units.

# annotated cases, reported pKd shown
# BINDER, pKd
records = [
    ("O3C9 Fab (Fab, V domains shown, also called clone O3C9) VH: EVQLLESGGGLVQPGGSLRLSCAASGFTFSSFAMSWVRQSPGKGLEWVSAIIGSGSNTYYADSVKGRFTISRDNSKNTLYLQMNSLRAEDTAVYYCAKGWFGGFNYWGQGTLVTVSS VL: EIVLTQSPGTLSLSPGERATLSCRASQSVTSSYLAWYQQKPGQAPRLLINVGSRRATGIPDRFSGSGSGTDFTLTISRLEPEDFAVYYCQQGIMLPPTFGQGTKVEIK", 9.80),
    ("19G1 Fab (Fab, V domains shown, also called clone 19G1) VH: EVQLLESGGGLVQPGGSLRLSCAASGFTFSSYAMSWVRQAPGKGLEWVSAIISSGGLTYYADSVKGRFTISRDNSKNTLYLQMNSLRAEDTAVYYCAKGWFGGFNYWGQGTLVTVSS VL: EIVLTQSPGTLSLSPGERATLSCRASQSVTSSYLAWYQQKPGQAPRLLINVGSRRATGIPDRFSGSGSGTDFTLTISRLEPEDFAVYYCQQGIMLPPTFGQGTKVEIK", 10.12),
    ("28H1 Fab (Fab, V domains shown, also called clone 28H1) VH: EVQLLESGGGLVQPGGSLRLSCAASGFTFSSHAMSWVRQAPGKGLEWVSAIWASGEQYYADSVKGRFTISRDNSKNTLYLQMNSLRAEDTAVYYCAKGWLGNFDYWGQGTLVTVSS VL: EIVLTQSPGTLSLSPGERATLSCRASQSVSRSYLAWYQQKPGQAPRLLIIGASTRATGIPDRFSGSGSGTDFTLTISRLEPEDFAVYYCQQGQVIPPTFGQGTKVEIK", 9.70),
]

Kindly review the next binder as well.
pKd measured on 5B8 Fab (Fab, V domains shown, also called clone 5B8) VH: EVQLLESGGGLVQPGGSLRLSCAASGFTFSSYAMSWVRQAPGKGLEWVSAIWGGGRSTYYADSVKGRFTISRDNSKNTLYLQMNSLRAEDTAVYYCAKGWFGGFNYWGQGTLVTVSS VL: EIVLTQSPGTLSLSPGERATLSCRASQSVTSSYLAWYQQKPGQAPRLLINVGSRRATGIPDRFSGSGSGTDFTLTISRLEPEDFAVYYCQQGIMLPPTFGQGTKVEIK = 9.16
